Please respond with reported IC50 for every item in the list.
- System: HCT-116
- PROCEDURE_DETAILS: Cytotoxicity against human HCT116 cells
- Assay type: functional, cell-based
Answers are plain numbers, in µg/mL.

Sample answers from the record:
{"COMPOUND": "CC(C)[C@@H]1NC(=O)[C@H]2N=C(O[C@@H]2C)[C@H](C(C)C)NC(=O)c2csc(n2)[C@H](C(C)C)NC(=O)[C@@H]2COC1=N2 [BISTRATAMIDE F]", "UNIT_SPEC": "µg/mL", "ENDPOINT_RESULT": 28}
{"COMPOUND": "Cc1oc2nc1C(=O)N[C@@H](C(C)C)c1nc(cs1)C(=O)N[C@@H](C(C)C)c1nc(cs1)C(=O)N[C@H]2C(C)C [BISTRATAMIDE H]", "UNIT_SPEC": "µg/mL", "ENDPOINT_RESULT": 1.7}

Then this compound:
Exam item: Suppose we examine the compound CC(C)[C@@H]1NC(=O)c2csc(n2)[C@H](C(C)C)NC(=O)c2csc(n2)[C@H](C(C)C)NC(=O)[C@H]([C@@H](C)O)NC1=O [BISTRATAMIDE J] ; what IC50 value has been reported?
Marked response: 1
